Test system: HOP-62 NSCLC
Experiment: NCI-60 one-dose screen, 48 h
Settings: 10 µM unless noted
This is part of a sample that, as a whole, favours compounds with a hit. Of some 83,000 tested, about 20% had one in any assay. Activity calls are given as the source filed them. The calls were made as follows: active = growth percent below 10; inactive = the rest.
Bench note: report the call from y (active), n (inactive)

Here are 3 compounds together with their reported answers.
{"columns": ["compound", "assay target", "qualitative label"],
 "data": [
  ["N#Cc1ccccc1-c1ccc(CN2C(=O)S/C(=C\\c3ccc(Br)cc3)C2=O)cc1", "HOP-62 NSCLC", "n"],
  ["CCN(CC)CCOc1ccc2c(-c3ccccc3)c(-c3ccc(OC)cc3)c(=O)oc2c1", "HOP-62 NSCLC", "n"],
  ["COc1ccc(Oc2ccc(/C=C/C(=O)c3ccc(OC)c(OC)c3)cc2)cc1", "HOP-62 NSCLC", "n"]
]}

Status in this test for `Fc1cccc(CNc2c3ccccc3nc3ccccc23)c1` ?
n

Status in this test for COC(=O)c1nc(-c2ccccc2)oc1S(=O)(=O)N1CCCC(C)C1 (centres undefined) ?
n

Status in this test for `COc1ccc(C(=O)/C=C/c2ccccc2)cc1S(N)(=O)=O` ?
n
